compounds and their reported disaggregation rating
# Test system: U937 / B78H1-VCAM-1 aggregate disruption, flow cytometry
# test: U937 and B78H1-VCAM-1 aggregate breakup by VLA-4 blockers – cell-based, flow cytometry, set 1, orthogonal assay (AID 504578)
# condition label: at 20 µM; stronger effect = higher value
I only need the number, thanks.

Consider the worked cases shown below.
>  <input smiles>
c1ccc2c(-c3ccc(OCCN4CCCCC4)cc3)c(-c3ccsc3)sc2c1

>  <disaggregation rating>
1

$$$$
>  <input smiles>
c1ccc2c(-c3ccc(OCCN4CCCC4)cc3)c(-c3ccsc3)sc2c1

>  <disaggregation rating>
2

$$$$

Q) Requested read-out: disaggregation rating. Entry: "CN(C)CCOc1ccc(-c2c(-c3ccccc3)sc3ccccc23)cc1"
A) 2

Q) Requested read-out: disaggregation rating. Entry: "COc1cccc(-c2sc3ccccc3c2-c2ccc(OCCN3CCCC3)cc2)c1"
A) 1

Q) Requested read-out: disaggregation rating. Entry: "COc1ccc(-c2sc3ccccc3c2-c2ccc(OCCN(C)C)cc2)cc1"
A) 2

Q) Requested read-out: disaggregation rating. Entry: "c1ccc(-c2sc3ccccc3c2-c2ccc(OCCN3CCCC3)cc2)cc1"
A) 1

Q) Requested read-out: disaggregation rating. Entry: "COc1cccc(-c2sc3ccccc3c2-c2ccc(OCCN(C)C)cc2)c1"
A) 1
